assay overview: Inhibition of starfish oocyte CDK1/cyclin B
Parameters: species or system Marthasterias glacialis
Reported IC50 values are given for each entry in this list.
result type: IC50 (nM)

COc1ccnc2c1c(-c1ccnc(N)n1)cn2C [MERIOLIN 9]
25000
CCCOc1ccnc2[nH]cc(-c3ccnc(N)n3)c12 [MERIOLIN 5]
7
Nc1nccc(-c2c[nH]c3nccc(Cl)c23)n1
240
COc1ccnc2[nH]cc(-c3ccnc(SC)n3)c12
1800
CC(C)Oc1ccnc2[nH]cc(-c3ccnc(N)n3)c12 [MERIOLIN 6]
8
Nc1nccc(-c2c[nH]c3nccc(O)c23)n1 [MERIOLIN 2]
57
Nc1nccc(-c2c[nH]c3nc(Br)ccc23)n1
2200
COc1ccnc2[nH]cc(-c3ccnc(N)n3)c12 [MERIOLIN 3]
170
COCCOc1ccnc2[nH]cc(-c3ccnc(N)n3)c12 [MERIOLIN 7]
35000
CCOc1ccnc2[nH]cc(-c3ccnc(N)n3)c12 [MERIOLIN 4]
10

###

assay overview: Inhibition of pig CK1delta/CK1epsilon
Design: species or system Sus scrofa
pIC50: −log10 of the molar value.
molecules and their reported pIC50
result type: pIC50

COCCOc1ccnc2[nH]cc(-c3ccnc(N)n3)c12
4.00
CCOc1ccnc2[nH]cc(-c3ccnc(N)n3)c12
7.00
COc1ccnc2[nH]cc(-c3ccnc(N)n3)c12
6.70
CC(C)Oc1ccnc2[nH]cc(-c3ccnc(N)n3)c12
6.85
CCCOc1ccnc2[nH]cc(-c3ccnc(N)n3)c12
6.70

###

tgt: CDK9/cyclin T1 (Homo sapiens)
Sequence (O60563 whole entry): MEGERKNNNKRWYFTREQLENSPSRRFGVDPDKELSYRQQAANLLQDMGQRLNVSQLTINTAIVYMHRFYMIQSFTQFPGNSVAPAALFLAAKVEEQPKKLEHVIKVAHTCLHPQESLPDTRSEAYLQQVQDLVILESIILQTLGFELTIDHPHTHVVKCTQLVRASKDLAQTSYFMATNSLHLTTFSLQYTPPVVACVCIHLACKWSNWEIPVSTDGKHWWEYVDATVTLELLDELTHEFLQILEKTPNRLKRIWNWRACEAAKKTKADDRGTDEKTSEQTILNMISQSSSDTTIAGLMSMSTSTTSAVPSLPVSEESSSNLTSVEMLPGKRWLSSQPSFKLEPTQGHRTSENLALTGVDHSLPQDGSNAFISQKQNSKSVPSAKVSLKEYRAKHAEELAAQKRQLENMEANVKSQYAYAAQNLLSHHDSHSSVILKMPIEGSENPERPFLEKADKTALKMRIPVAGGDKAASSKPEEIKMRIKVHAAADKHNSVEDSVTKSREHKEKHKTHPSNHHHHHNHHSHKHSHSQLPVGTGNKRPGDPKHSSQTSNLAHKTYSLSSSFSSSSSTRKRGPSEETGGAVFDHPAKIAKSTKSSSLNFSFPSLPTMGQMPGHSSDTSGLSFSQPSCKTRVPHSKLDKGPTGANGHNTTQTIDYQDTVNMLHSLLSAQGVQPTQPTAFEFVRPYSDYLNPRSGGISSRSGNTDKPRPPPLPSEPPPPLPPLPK
Sequence (P50750 whole entry): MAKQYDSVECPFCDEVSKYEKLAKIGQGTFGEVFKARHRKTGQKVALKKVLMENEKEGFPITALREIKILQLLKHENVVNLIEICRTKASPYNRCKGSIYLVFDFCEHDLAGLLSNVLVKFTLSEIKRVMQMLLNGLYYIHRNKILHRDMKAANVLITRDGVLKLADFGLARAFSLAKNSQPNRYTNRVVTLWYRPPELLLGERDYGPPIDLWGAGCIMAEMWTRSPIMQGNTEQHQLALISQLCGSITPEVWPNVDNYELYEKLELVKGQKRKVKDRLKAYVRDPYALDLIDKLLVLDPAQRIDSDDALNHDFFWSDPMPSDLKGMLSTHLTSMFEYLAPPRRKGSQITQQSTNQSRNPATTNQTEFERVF
assay overview: Inhibition of human recombinant CDK9/cyclin T expressed in insect cells
result type: IC50 (nM)

Nc1nccc(-c2c[nH]c3nccc(O)c23)n1 [MERIOLIN 2]
18
Oc1ccnc2[nH]cc(-c3ccncn3)c12
250
Cn1cc(-c2ccnc(N)n2)c2c(O)ccnc21 [MERIOLIN 8]
1200
CCOc1ccnc2[nH]cc(-c3ccnc(N)n3)c12 [MERIOLIN 4]
7
COCCOc1ccnc2[nH]cc(-c3ccnc(N)n3)c12 [MERIOLIN 7]
5300
COc1ccnc2[nH]cc(-c3ccncn3)c12
220

###

Below, each entry is listed alongside its reported IC50.
assay overview: Inhibition of pig GSK-3-alpha/GSK-3beta
Parameters: species or system Sus scrofa
result type: IC50 (µM)

Nc1nccc(-c2c[nH]c3nc(Br)ccc23)n1
30
Oc1ccnc2[nH]cc(-c3ccncn3)c12
1.8
Cn1cc(-c2ccnc(N)n2)c2c(O)ccnc21
4.6
CCCOc1ccnc2[nH]cc(-c3ccnc(N)n3)c12
0.025
COc1ccnc2[nH]cc(-c3ccnc(SC)n3)c12
7
COc1ccnc2[nH]cc(-c3ccnc(N)n3)c12
0.23
Nc1nccc(-c2c[nH]c3nccc(O)c23)n1
0.4
CC(C)Oc1ccnc2[nH]cc(-c3ccnc(N)n3)c12
0.021
COCCOc1ccnc2[nH]cc(-c3ccnc(N)n3)c12
63
COc1ccnc2[nH]cc(-c3ccncn3)c12
1.1
CCOc1ccnc2[nH]cc(-c3ccnc(N)n3)c12
0.03
Nc1nccc(-c2c[nH]c3nccc(Cl)c23)n1
2

###

tgt: CDK9/cyclin T1 (Homo sapiens)
assay overview: Inhibition of human recombinant CDK9/cyclin T expressed in insect cells
result type: IC50

CC(C)Oc1ccnc2[nH]cc(-c3ccnc(N)n3)c12
5.6 nM
COc1ccnc2[nH]cc(-c3ccnc(N)n3)c12
6 nM
CCCOc1ccnc2[nH]cc(-c3ccnc(N)n3)c12
5.6 nM
Nc1nccc(-c2c[nH]c3nc(Br)ccc23)n1
1000 nM
COc1ccnc2[nH]cc(-c3ccnc(SC)n3)c12
1100 nM
Nc1nccc(-c2c[nH]c3ncccc23)n1
26 nM
Nc1nccc(-c2c[nH]c3nccc(Cl)c23)n1
50 nM

###

Reported pIC50 by item:
System: GBM
assay overview: cells
condition set: Homo sapiens, 48 h
Description: Survival of human GBM cells after 48 hrs by neutral red reduction assay
pIC50: −log10 of the molar value.
result type: pIC50

CCOc1ccnc2[nH]cc(-c3ccnc(N)n3)c12 [MERIOLIN 4]
6.89
COc1ccnc2[nH]cc(-c3ccncn3)c12
5.00
CCCOc1ccnc2[nH]cc(-c3ccnc(N)n3)c12 [MERIOLIN 5]
7.10
Nc1nccc(-c2c[nH]c3ncccc23)n1 [MERIOLIN 1]
5.86
CC(C)Oc1ccnc2[nH]cc(-c3ccnc(N)n3)c12 [MERIOLIN 6]
7.10
Nc1nccc(-c2c[nH]c3nccc(O)c23)n1 [MERIOLIN 2]
5.92
COc1ccnc2[nH]cc(-c3ccnc(N)n3)c12 [MERIOLIN 3]
6.85
Nc1nccc(-c2c[nH]c3nccc(Cl)c23)n1
5.00

###

tgt: Cyclin-dependent kinase 2/cyclin A (Homo sapiens, UniProt P24941)
assay overview: Inhibition of human recombinant CDK2/cyclin A expressed in insect cells
Listing of recorded IC50 by entry.
result type: IC50 (nM)

COc1ccnc2[nH]cc(-c3ccnc(SC)n3)c12
2100
COc1ccnc2[nH]cc(-c3ccncn3)c12
800
CCCOc1ccnc2[nH]cc(-c3ccnc(N)n3)c12
3
Nc1nccc(-c2c[nH]c3nccc(O)c23)n1
18
Nc1nccc(-c2c[nH]c3nccc(Cl)c23)n1
60

###

tgt: Cyclin-dependent kinase 2/cyclin A (Homo sapiens, UniProt P24941)
assay overview: Inhibition of human recombinant CDK2/cyclin A expressed in insect cells
pIC50: −log10 of the molar value.
Let's look at some compounds and their measured pIC50.
result type: pIC50

Cn1cc(-c2ccnc(N)n2)c2c(O)ccnc21 [MERIOLIN 8]
5.74
CCOc1ccnc2[nH]cc(-c3ccnc(N)n3)c12 [MERIOLIN 4]
8.15
Nc1nccc(-c2c[nH]c3nc(Br)ccc23)n1
5.89
COc1ccnc2[nH]cc(-c3ccnc(N)n3)c12 [MERIOLIN 3]
7.96
Oc1ccnc2[nH]cc(-c3ccncn3)c12
6.15

###

tgt: Cyclin-dependent kinase 5/CDK5 activator 1 (Homo sapiens, UniProt Q00535)
Sequence (Q00535 whole entry): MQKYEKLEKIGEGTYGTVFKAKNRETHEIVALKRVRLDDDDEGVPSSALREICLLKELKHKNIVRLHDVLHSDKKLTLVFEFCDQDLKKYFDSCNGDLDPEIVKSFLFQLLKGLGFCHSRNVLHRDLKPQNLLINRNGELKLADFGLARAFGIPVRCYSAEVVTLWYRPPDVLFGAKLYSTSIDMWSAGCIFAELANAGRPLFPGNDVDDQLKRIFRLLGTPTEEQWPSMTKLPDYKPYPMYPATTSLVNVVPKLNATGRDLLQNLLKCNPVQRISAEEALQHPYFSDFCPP
Sequence (Q15078 whole entry, further chain): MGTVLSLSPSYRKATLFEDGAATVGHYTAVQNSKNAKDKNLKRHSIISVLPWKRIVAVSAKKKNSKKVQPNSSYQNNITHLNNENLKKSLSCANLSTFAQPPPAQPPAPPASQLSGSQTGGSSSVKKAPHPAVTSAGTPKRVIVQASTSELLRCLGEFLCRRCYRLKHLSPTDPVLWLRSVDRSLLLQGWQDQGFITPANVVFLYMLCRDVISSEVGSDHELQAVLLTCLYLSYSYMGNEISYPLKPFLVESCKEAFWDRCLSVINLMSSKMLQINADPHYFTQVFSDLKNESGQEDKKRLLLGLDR
assay overview: Inhibition of recombinant GST-CDK5/p25 expressed in Escherichia coli
result type: IC50 (µM)

COc1ccnc2c1c(-c1ccnc(N)n1)cn2C
73
Oc1ccnc2[nH]cc(-c3ccncn3)c12
0.7
Nc1nccc(-c2c[nH]c3nccc(Cl)c23)n1
0.23
COc1ccnc2[nH]cc(-c3ccnc(SC)n3)c12
2.3
COCCOc1ccnc2[nH]cc(-c3ccnc(N)n3)c12
14
CCOc1ccnc2[nH]cc(-c3ccnc(N)n3)c12
0.005
COc1ccnc2[nH]cc(-c3ccnc(N)n3)c12
0.17
CCCOc1ccnc2[nH]cc(-c3ccnc(N)n3)c12
0.003
CC(C)Oc1ccnc2[nH]cc(-c3ccnc(N)n3)c12
0.003
Nc1nccc(-c2c[nH]c3ncccc23)n1
0.51
Nc1nccc(-c2c[nH]c3nc(Br)ccc23)n1
0.68
COc1ccnc2[nH]cc(-c3ccncn3)c12
1.3
Cn1cc(-c2ccnc(N)n2)c2c(O)ccnc21
5.5
Nc1nccc(-c2c[nH]c3nccc(O)c23)n1
0.05

###

System: HCT-116
assay overview: Antiproliferative activity against human HCT116 cells after 5 days
Type: functional, cell-based
condition set: HCT-116, 120 h
pIC50: −log10 of the molar value.
result type: pIC50

COc1ccnc2[nH]cc(-c3ccnc(N)n3)c12
7.20

###

assay overview: Inhibition of pig CK1delta/CK1epsilon
Design: species or system Sus scrofa
Measured IC50 of individual entries
result type: IC50 (nM)

Nc1nccc(-c2c[nH]c3nccc(Cl)c23)n1
3000
Cn1cc(-c2ccnc(N)n2)c2c(O)ccnc21 [MERIOLIN 8]
2300
COc1ccnc2[nH]cc(-c3ccncn3)c12
600
COc1ccnc2[nH]cc(-c3ccnc(SC)n3)c12
600

Ref: ChEMBL document CHEMBL1141564
